# procedure text: pH-dependent equilibrium solubility
# Format: physicochemical
# experimental context: purified water, pH 7, aqueous buffer, thermodynamic from solid, pH 7, 24 hours; read-out: Equilibrium Solubility
value kind: solubility thermodynamic at 24 h

Kindly indicate its recorded solubility thermodynamic at 24 h. Item: O=C(O)c1cc(NCCc2ccc(C(F)(F)F)cc2)ccc1O [crisdesalazine]
39.7 µg/mL

* * *

# procedure text: pH-dependent equilibrium solubility
# Type: physicochemical
# experimental context: purified water, pH 6, aqueous buffer, thermodynamic from solid, pH 6, 24 hours; read-out: Equilibrium Solubility
value kind: solubility thermodynamic at 24 h
Dear colleague, please send the value followed by its unit.

Please indicate solubility thermodynamic at 24 h recorded for O=C(O)c1cc(NCCc2ccc(C(F)(F)F)cc2)ccc1O [crisdesalazine]
11.5 µg/mL

* * *

# procedure text: pH-dependent equilibrium solubility
# Type: physicochemical
# experimental context: purified water, pH 11, aqueous buffer, thermodynamic from solid, pH 11, 24 hours; read-out: Equilibrium Solubility
value kind: solubility thermodynamic at 24 h (mg/mL)
// return numeric value only (unit: mg/mL, not printed)

Give the reported value of solubility thermodynamic at 24 h for this record: O=C(O)c1cc(NCCc2ccc(C(F)(F)F)cc2)ccc1O [crisdesalazine]
0.718

* * *

# procedure text: pH-dependent equilibrium solubility
# Assay type: physicochemical
# experimental context: purified water, pH 5, aqueous buffer, thermodynamic from solid, pH 5, 12 hours; read-out: Equilibrium Solubility
value kind: solubility thermodynamic at 12 h (µg/mL)
Numbers only here, please. The scale is µg/mL.

Supply recorded solubility thermodynamic at 12 h for O=C(O)c1cc(NCCc2ccc(C(F)(F)F)cc2)ccc1O here.
0.7

* * *

# procedure text: pH-dependent equilibrium solubility
# Type: physicochemical
# experimental context: purified water, pH 2, simulated gastric fluid, thermodynamic from solid, pH 2, 24 hours; read-out: Equilibrium Solubility
value kind: solubility thermodynamic at 24 h

Provide measured solubility thermodynamic at 24 h value, entry: O=C(O)c1cc(NCCc2ccc(C(F)(F)F)cc2)ccc1O
1.7 µg/mL

* * *

# procedure text: pH-dependent equilibrium solubility
# Assay type: physicochemical
# experimental context: purified water, pH 9, aqueous buffer, thermodynamic from solid, pH 9, 12 hours; read-out: Equilibrium Solubility
value kind: solubility thermodynamic at 12 h
Answer by giving the amount and then stating its unit.

Given O=C(O)c1cc(NCCc2ccc(C(F)(F)F)cc2)ccc1O [crisdesalazine] , respond with its solubility thermodynamic at 12 h.
1210 µg/mL

* * *

# procedure text: pH-dependent equilibrium solubility
# Assay type: physicochemical
# experimental context: purified water, pH 1, simulated gastric fluid, thermodynamic from solid, pH 1, 12 hours; read-out: Equilibrium Solubility
# Protocol: First, the inventors of the present invention measured the pH-dependent equilibrium solubility of crisdesalazine (2-hydroxy-5-[2-(4-trifluoromethylphenyl)ethylamino]benzoic acid), and the results of the solubility at 12 hours and 24 hours were as shown in Table 1 and Figure 1 below. […]
value kind: solubility thermodynamic at 12 h (µg/mL)
# value in µg/mL; strip the unit string

Return solubility thermodynamic at 12 h for the following molecule: O=C(O)c1cc(NCCc2ccc(C(F)(F)F)cc2)ccc1O
16.4

* * *

# procedure text: pH-dependent equilibrium solubility
# Format: physicochemical
# experimental context: purified water, pH 7, aqueous buffer, thermodynamic from solid, pH 7 or lower, 24 hours; read-out: equilibrium solubility in purified water
value kind: solubility thermodynamic at 24 h

Note down solubility thermodynamic at 24 h recorded for O=C(O)c1cc(NCCc2ccc(C(F)(F)F)cc2)ccc1O [crisdesalazine]
≤ 39.7 µg/mL

* * *

# procedure text: pH-dependent equilibrium solubility
# Format: physicochemical
# experimental context: purified water, pH 7, aqueous buffer, thermodynamic from solid, pH 7, 12 hours; read-out: Equilibrium Solubility
# Method: First, the inventors of the present invention measured the pH-dependent equilibrium solubility of crisdesalazine (2-hydroxy-5-[2-(4-trifluoromethylphenyl)ethylamino]benzoic acid), and the results of the solubility at 12 hours and 24 hours were as shown in Table 1 and Figure 1 below. […]
value kind: solubility thermodynamic at 12 h (µg/mL)
Express your answer in µg/mL, writing the number without its unit.

Answer with reported solubility thermodynamic at 12 h of O=C(O)c1cc(NCCc2ccc(C(F)(F)F)cc2)ccc1O
38.2

* * *

# procedure text: pH-dependent equilibrium solubility
# Type: physicochemical
# experimental context: purified water, pH 5, aqueous buffer, thermodynamic from solid, pH 5, 24 hours; read-out: Equilibrium Solubility
value kind: solubility thermodynamic at 24 h (µg/mL)
Your answer should be a plain number; it is taken to be in µg/mL.

Specify measured solubility thermodynamic at 24 h for O=C(O)c1cc(NCCc2ccc(C(F)(F)F)cc2)ccc1O .
5.9

* * *

# procedure text: pH-dependent equilibrium solubility
# Format: physicochemical
# experimental context: purified water, pH 4, aqueous buffer, thermodynamic from solid, pH 4, 24 hours; read-out: Equilibrium Solubility
value kind: solubility thermodynamic at 24 h (µg/mL)
// return numeric value only (unit: µg/mL, not printed)

Entry O=C(O)c1cc(NCCc2ccc(C(F)(F)F)cc2)ccc1O needs its solubility thermodynamic at 24 h filled in; supply it.
2.2

* * *

# procedure text: pH-dependent equilibrium solubility
# Format: physicochemical
# experimental context: purified water, pH 10, aqueous buffer, thermodynamic from solid, pH 10, 12 hours; read-out: Equilibrium Solubility
value kind: solubility thermodynamic at 12 h (µg/mL)
The figure you give is taken to be in µg/mL; do not add the unit.

Return reported solubility thermodynamic at 12 h. Input molecule: O=C(O)c1cc(NCCc2ccc(C(F)(F)F)cc2)ccc1O
685

* * *

# procedure text: pH-dependent equilibrium solubility
# Format: physicochemical
# experimental context: purified water, pH 6, aqueous buffer, thermodynamic from solid, pH 6, 12 hours; read-out: Equilibrium Solubility
value kind: solubility thermodynamic at 12 h (µg/mL)
A number alone suffices; assume µg/mL.

Hello, please tell me recorded solubility thermodynamic at 12 h for this one: O=C(O)c1cc(NCCc2ccc(C(F)(F)F)cc2)ccc1O [crisdesalazine]
6.4

* * *

# procedure text: pH-dependent equilibrium solubility
# Type: physicochemical
# experimental context: purified water, pH 8, aqueous buffer, thermodynamic from solid, pH 8, 12 hours; read-out: Equilibrium Solubility
value kind: solubility thermodynamic at 12 h (µg/mL)
Provide only the numeric value, understood in µg/mL.

Report measured solubility thermodynamic at 12 h; entry is O=C(O)c1cc(NCCc2ccc(C(F)(F)F)cc2)ccc1O
254

* * *

# procedure text: pH-dependent equilibrium solubility
# Assay type: physicochemical
# experimental context: purified water, pH 9, aqueous buffer, thermodynamic from solid, pH 9, 24 hours; read-out: Equilibrium Solubility
value kind: solubility thermodynamic at 24 h

Output measured solubility thermodynamic at 24 h for this item: O=C(O)c1cc(NCCc2ccc(C(F)(F)F)cc2)ccc1O [crisdesalazine]
1230 µg/mL

* * *

# procedure text: pH-dependent equilibrium solubility
# Format: physicochemical
# experimental context: purified water, pH 8, aqueous buffer, thermodynamic from solid, pH 8, 24 hours; read-out: Equilibrium Solubility
# Protocol: First, the inventors of the present invention measured the pH-dependent equilibrium solubility of crisdesalazine (2-hydroxy-5-[2-(4-trifluoromethylphenyl)ethylamino]benzoic acid), and the results of the solubility at 12 hours and 24 hours were as shown in Table 1 and Figure 1 below. […]
value kind: solubility thermodynamic at 24 h (µg/mL)
Dear colleague, please return just the value in µg/mL, with no unit written.

State its solubility thermodynamic at 24 h: O=C(O)c1cc(NCCc2ccc(C(F)(F)F)cc2)ccc1O
252

* * *

# procedure text: pH-dependent equilibrium solubility
# Assay type: physicochemical
# experimental context: purified water, pH 12, aqueous buffer, thermodynamic from solid, pH 12, 12 hours; read-out: Equilibrium Solubility
# Description: First, the inventors of the present invention measured the pH-dependent equilibrium solubility of crisdesalazine (2-hydroxy-5-[2-(4-trifluoromethylphenyl)ethylamino]benzoic acid), and the results of the solubility at 12 hours and 24 hours were as shown in Table 1 and Figure 1 below. […]
value kind: solubility thermodynamic at 12 h (µg/mL)
// note: answer is a bare numeric in µg/mL

Tell me its solubility thermodynamic at 12 h given O=C(O)c1cc(NCCc2ccc(C(F)(F)F)cc2)ccc1O [crisdesalazine] as the entry.
1220

* * *

# procedure text: pH-dependent equilibrium solubility
# Format: physicochemical
# experimental context: purified water, pH 10, aqueous buffer, thermodynamic from solid, pH 10, 24 hours; read-out: Equilibrium Solubility
value kind: solubility thermodynamic at 24 h (µg/mL)
// return numeric value only (unit: µg/mL, not printed)

Supply solubility thermodynamic at 24 h value. Item: O=C(O)c1cc(NCCc2ccc(C(F)(F)F)cc2)ccc1O
678
